Please respond with reported Population Tubulin-Different-Phenotype (%) for every item in the list.
# Tested on: U2OS
# assay_notes: Multiplex assay against U2OS
# Assay type: toxicity, cell-based
# conditions_used: human, 12 h, 10 µM, compound concentration 10 uM, replicate 1
Your answer is read as %, so omit the unit and give the number.

Query (compound): "CCCS(=O)(=O)c1nc(NC2CC2)cc(-c2ccc3c(ccn3C3CC(C)(C)NC(C)(C)C3)c2)n1" ; field requested: Population Tubulin-Different-Phenotype (%)
0

Query (compound): "Cc1cn(-c2cc(NC(=O)c3ccc(C)c(Nc4nccc(-c5cccnc5)n4)c3)cc(C(F)(F)F)c2)cn1" ; field requested: Population Tubulin-Different-Phenotype (%)
93

Query (compound): CN1C2CCC1CC(OC(c1ccc(F)cc1)c1ccc(F)cc1)C2.Cl (configuration not stated) ; field requested: Population Tubulin-Different-Phenotype (%)
54

Query (compound): "O=C(Nc1cccnn1)N1CCC(=Cc2cccc(Oc3ccc(C(F)(F)F)cn3)c2)CC1" ; field requested: Population Tubulin-Different-Phenotype (%)
22

Query (compound): CN1CCC(=C2c3ccccc3CC(=O)c3sccc32)CC1.O=C(O)/C=C/C(=O)O [KETOTIFEN FUMARATE] ; field requested: Population Tubulin-Different-Phenotype (%)
97

Query (compound): "Cl.O=c1c2cccn2c2ccccc2n1CCCN1CCC(c2ccc(Cl)cc2)CC1" ; field requested: Population Tubulin-Different-Phenotype (%)
99

Query (compound): "CNc1cc(Oc2cc(C(=O)Nc3cc(N4CCN(C)CC4)cc(C(F)(F)F)c3)ccc2C)ncn1" ; field requested: Population Tubulin-Different-Phenotype (%)
100

Query (compound): "C=CCn1c(=O)c2cnc(Nc3ccc(N4CCN(C)CC4)cc3)nc2n1-c1cccc(C(C)(C)O)n1" ; field requested: Population Tubulin-Different-Phenotype (%)
80

Query (compound): "Cc1ccc2nc(NCCN)c3ncc(C)n3c2c1.O=C(O)C(F)(F)F.O=C(O)C(F)(F)F" ; field requested: Population Tubulin-Different-Phenotype (%)
17

Query (compound): "COc1ccc(-c2ccc3c(N4CCOCC4)nc(N4C[C@@H](C)O[C@@H](C)C4)nc3n2)cc1CO" ; field requested: Population Tubulin-Different-Phenotype (%)
11

Query (compound): "CCOc1cc(C(=O)N2CCC(N3CCN(C)CC3)CC2)ccc1Nc1ncc2c(n1)N(C1CCCC1)c1ccccc1C(=O)N2C" ; field requested: Population Tubulin-Different-Phenotype (%)
100

Query (compound): "O=C(Nc1ccc(Cl)cc1)Nc1cccc(-c2cccc(N3CCCC3)n2)c1" ; field requested: Population Tubulin-Different-Phenotype (%)
82

Query (compound): "Cn1nc(C(F)(F)F)cc1-c1cnc(N2CCc3cc(S(=O)(=O)Nc4c(F)cc(Cl)cc4F)cc(N4CCCC4=O)c32)nc1" ; field requested: Population Tubulin-Different-Phenotype (%)
22

Query (compound): "CCCS(=O)(=O)Nc1ccc(F)c(C(=O)c2c[nH]c3ncc(Cl)cc23)c1F" ; field requested: Population Tubulin-Different-Phenotype (%)
26

Query (compound): "NC(=O)c1cccc(-c2cc(Nc3ccc(OC(F)(F)F)cc3)ncn2)c1" ; field requested: Population Tubulin-Different-Phenotype (%)
16

Query (compound): "Cc1cc(C)c(S(=O)(=O)N(Cc2ccc(-c3cccc(S(C)(=O)=O)c3)cc2)Cc2ccc(C(F)(F)F)o2)c(C)c1" ; field requested: Population Tubulin-Different-Phenotype (%)
85

Query (compound): "COc1ccc(S(=O)(=O)N(CCO)c2ccccc2CN(C)C/C=C/c2ccc(Cl)cc2)cc1.O=P(O)(O)O" ; field requested: Population Tubulin-Different-Phenotype (%)
28
